Parameter log10(kon): see the listing below.
Target: T1, recombinant human PD-1 expressed with a C-terminal myc-myc-hexahistidine tag (human)
T1 construct: monomeric; also called hPD-1-MMH; human PD-1-MMH
T1 sequence (chain, as listed by the source limits assumed): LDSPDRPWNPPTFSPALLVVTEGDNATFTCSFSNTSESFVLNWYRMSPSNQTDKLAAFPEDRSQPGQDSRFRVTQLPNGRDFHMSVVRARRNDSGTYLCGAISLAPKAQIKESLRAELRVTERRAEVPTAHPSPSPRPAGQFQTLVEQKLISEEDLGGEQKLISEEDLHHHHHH
Assay: SPR, mAb captured, 37C;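 also: rate constants from fitting sensorgrams to a 1:1 binding model, KD derived as kd divided by ka and half-life as ln2/(60·kd)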
# log10 transformed; quantity=kon; unit=M⁻¹ s⁻¹

binder	reported_result
H2aM7780N (antibody, mouse IgG2a, V domains shown, Human variable regions, mouse IgG2a Fc (H2aM prefix); also called H2M7780N) VH: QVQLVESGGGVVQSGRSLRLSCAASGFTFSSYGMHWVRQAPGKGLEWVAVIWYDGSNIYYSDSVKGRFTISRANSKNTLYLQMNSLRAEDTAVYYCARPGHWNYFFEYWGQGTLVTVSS VL: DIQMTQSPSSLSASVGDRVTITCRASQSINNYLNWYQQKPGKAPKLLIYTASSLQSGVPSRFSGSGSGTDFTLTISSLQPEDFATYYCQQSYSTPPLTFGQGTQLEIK	4.43
H4H7798N (antibody, human IgG4 S228P, kappa, V domains shown) VH: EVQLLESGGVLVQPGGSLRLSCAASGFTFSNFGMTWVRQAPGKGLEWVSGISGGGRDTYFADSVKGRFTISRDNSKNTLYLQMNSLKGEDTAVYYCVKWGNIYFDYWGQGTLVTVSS VL: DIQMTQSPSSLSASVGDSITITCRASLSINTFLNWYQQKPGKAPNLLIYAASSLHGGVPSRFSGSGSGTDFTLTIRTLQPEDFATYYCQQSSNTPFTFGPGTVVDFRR	5.36
H2aM7796N (antibody, mouse IgG2a, V domains shown, Human variable regions, mouse IgG2a Fc; also called H2M7796N) VH: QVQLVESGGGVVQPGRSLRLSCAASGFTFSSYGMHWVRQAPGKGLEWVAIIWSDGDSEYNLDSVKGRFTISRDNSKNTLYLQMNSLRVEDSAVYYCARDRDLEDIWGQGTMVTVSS VL: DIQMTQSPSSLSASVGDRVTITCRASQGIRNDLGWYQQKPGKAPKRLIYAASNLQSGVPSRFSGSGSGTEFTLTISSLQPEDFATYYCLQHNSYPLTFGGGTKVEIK	4.04
H1M7799N (antibody, mouse IgG1, V domains shown, Human variable regions, mouse IgG1 Fc) VH: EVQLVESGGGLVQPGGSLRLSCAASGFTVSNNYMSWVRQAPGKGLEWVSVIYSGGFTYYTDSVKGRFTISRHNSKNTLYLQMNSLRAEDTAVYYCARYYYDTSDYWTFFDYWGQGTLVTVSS VL: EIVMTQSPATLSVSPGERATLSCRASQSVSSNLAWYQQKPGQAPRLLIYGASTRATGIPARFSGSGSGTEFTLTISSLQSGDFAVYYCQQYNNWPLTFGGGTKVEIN	4.90

Exercise: # query: log10(kon) of entry H2aM7798N (antibody, mouse IgG2a, V domains shown, Human variable regions, mouse IgG2a Fc; also called H2M7798N) VH: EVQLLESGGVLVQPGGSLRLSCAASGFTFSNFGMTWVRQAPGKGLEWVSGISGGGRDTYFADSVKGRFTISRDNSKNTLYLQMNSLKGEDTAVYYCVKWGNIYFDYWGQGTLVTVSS VL: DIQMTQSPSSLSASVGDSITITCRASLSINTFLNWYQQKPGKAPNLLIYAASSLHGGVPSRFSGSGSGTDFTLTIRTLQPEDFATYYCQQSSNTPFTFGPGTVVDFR
Key: 5.24

Exercise: Next up: H2aM7795N (antibody, mouse IgG2a, V domains shown, Human variable regions, mouse IgG2a Fc; also called H2M7795N) VH: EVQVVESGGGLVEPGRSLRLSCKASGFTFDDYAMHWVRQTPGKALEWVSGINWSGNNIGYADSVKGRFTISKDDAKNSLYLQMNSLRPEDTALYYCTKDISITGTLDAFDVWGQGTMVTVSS VL: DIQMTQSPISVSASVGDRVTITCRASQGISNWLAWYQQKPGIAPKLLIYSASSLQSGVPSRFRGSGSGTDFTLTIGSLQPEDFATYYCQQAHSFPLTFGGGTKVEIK
Key: 4.83

Exercise: Next up: H1M7800N (antibody, mouse IgG1, V domains shown, Human variable regions, mouse IgG1 Fc) VH: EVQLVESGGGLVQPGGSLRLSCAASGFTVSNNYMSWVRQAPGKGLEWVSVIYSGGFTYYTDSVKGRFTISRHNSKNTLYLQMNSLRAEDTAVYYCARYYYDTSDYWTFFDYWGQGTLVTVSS VL: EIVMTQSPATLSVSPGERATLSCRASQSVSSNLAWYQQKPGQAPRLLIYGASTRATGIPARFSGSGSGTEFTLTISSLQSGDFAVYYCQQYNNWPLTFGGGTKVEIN
Key: 4.89
